Could you please report measured % Unbound by a2M for the items listed next?
- Target: T1, alpha-2 macroglobulin (in human plasma) (human, UniProt P01023 24-1474)
- T1 construct: Not purified: the endogenous protein of the plasma
- T1 sequence (looked up): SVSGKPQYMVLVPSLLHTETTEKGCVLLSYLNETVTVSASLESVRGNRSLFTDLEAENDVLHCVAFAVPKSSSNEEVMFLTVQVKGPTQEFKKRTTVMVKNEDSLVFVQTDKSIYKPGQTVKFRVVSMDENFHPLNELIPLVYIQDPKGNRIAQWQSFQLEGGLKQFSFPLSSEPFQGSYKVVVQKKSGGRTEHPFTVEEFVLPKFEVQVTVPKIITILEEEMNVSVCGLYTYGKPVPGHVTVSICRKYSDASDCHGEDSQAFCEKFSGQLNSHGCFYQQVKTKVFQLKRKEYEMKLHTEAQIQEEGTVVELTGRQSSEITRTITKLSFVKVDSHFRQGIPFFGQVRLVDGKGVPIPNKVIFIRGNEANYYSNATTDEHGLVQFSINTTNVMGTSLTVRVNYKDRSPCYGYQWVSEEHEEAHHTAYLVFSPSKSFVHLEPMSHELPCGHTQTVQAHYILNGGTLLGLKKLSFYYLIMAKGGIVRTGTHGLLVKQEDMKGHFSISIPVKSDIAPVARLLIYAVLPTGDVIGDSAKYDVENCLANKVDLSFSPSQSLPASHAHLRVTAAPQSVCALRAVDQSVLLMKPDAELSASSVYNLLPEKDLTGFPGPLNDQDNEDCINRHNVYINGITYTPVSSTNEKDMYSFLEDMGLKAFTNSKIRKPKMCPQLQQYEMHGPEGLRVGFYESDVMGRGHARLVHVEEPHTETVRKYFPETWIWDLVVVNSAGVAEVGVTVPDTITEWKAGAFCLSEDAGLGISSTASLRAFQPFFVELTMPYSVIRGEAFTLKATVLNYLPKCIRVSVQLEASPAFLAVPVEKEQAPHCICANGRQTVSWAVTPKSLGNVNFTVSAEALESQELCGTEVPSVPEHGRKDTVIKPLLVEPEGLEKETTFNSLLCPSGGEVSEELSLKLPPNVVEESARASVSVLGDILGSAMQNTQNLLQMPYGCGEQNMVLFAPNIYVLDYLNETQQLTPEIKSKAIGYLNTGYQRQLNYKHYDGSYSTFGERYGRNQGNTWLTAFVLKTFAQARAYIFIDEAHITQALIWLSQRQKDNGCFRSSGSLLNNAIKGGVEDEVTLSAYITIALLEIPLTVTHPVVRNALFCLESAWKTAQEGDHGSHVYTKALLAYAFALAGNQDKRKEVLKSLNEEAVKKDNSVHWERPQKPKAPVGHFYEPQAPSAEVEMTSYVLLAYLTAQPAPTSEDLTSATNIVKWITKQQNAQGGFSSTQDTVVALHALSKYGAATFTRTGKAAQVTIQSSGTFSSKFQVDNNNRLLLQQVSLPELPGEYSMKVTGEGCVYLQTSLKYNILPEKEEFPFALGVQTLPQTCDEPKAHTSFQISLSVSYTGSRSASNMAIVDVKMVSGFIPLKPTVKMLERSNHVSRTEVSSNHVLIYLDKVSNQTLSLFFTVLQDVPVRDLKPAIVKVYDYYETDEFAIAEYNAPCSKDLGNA
- Experiment: Ac-RQAR-AMC activity of protease after 5 min in human citrated plasma, with and without M84R ecotin
Your answer is read as %, so omit the unit and give the number.

Task: Quick check: % Unbound by a2M of modified MT-SP1 CB485 (I41T/Y146E/Q175D/K224L) protease domain (enzyme) VVGGTDADEGEWPWQVSLHALGQGHTCGASLISPNWLVSAAHCYIDDRGFRYSDPTQWTAFLGLHDQSQRSAPGVQERRLKRIISHPFFNDFTFDYDIALLELEKPAEYSSMVRPICLPDASHVFPAGKAIWVTGWGHTQEGGTGALILQKGEIRVINQTTCENLLPQDITPRMMCVGFLSGGVDSCQGDSGGPLSSVEADGRIFQAGVVSWGDGCAQRNLPGVYTRLPLFRDWIKENTGV ?
Result: 82

Task: Then this binder: modified MT-SP1 CB478 (I41T/Y146D/Q175D/K224N) protease domain (enzyme) VVGGTDADEGEWPWQVSLHALGQGHTCGASLISPNWLVSAAHCYIDDRGFRYSDPTQWTAFLGLHDQSQRSAPGVQERRLKRIISHPFFNDFTFDYDIALLELEKPAEYSSMVRPICLPDASHVFPAGKAIWVTGWGHTQDGGTGALILQKGEIRVINQTTCENLLPQDITPRMMCVGFLSGGVDSCQGDSGGPLSSVEADGRIFQAGVVSWGDGCAQRNNPGVYTRLPLFRDWIKENTGV
Result: 89

Origin of values: patent US20070093443A1
